Can you tell me pIC50 for the items I'm about to list?
target: CYP17 (human testicular microsome) (Homo sapiens, UniProt P05093); construct: using microsomal fraction from human testis (Celsis Cat #S00110) as the enzyme source; tissue Celsis S00110; host or cells: human testis microsomal fraction; assay: CYP17 enzymatic assay (IC50) (Biological Example 4); type: biochemical; conditions: human testicular microsome; read-out: CYP17 enzymatic assay IC50 (Biological Example No. 4)
pIC50: −log10 of the molar value.

These recorded examples may help you get a feel for the data.
1) COC1C[C@H]2[C@@H]3CC=C(n4ccnc4)[C@@]3(C)CC[C@@H]2[C@@]2(C)CCC3CC312 (stereo partly shown); > 7.96
2) C#C[C@]1(O)CC[C@@]2(C)C(CCC3C2CC[C@]2(C)C(c4cccnc4)=CCC32)C1 (stereo partly shown); < 7.60
3) CCC(=O)N1CCC[C@@]2(C)[C@@H](CC[C@@H]3[C@@H]2CC[C@]2(C)C(n4ccnc4)=CC[C@@H]32)C1; > 7.96

Attention now shifts to the item below.
CON=C1C=C2CCC3C4=CC=C(c5cccnc5)[C@@]4(C)CCC3[C@@]2(C)CC1 (stereo partly shown) has a reported pIC50 of > 7.96

====

Target: CYP17 (human testicular microsome) (Homo sapiens)
Construct: using microsomal fraction from human testis (Celsis Cat #S00110) as the enzyme source; tissue Celsis S00110; host or cells: human testis microsomal fraction
Sequence (P05093 1-508): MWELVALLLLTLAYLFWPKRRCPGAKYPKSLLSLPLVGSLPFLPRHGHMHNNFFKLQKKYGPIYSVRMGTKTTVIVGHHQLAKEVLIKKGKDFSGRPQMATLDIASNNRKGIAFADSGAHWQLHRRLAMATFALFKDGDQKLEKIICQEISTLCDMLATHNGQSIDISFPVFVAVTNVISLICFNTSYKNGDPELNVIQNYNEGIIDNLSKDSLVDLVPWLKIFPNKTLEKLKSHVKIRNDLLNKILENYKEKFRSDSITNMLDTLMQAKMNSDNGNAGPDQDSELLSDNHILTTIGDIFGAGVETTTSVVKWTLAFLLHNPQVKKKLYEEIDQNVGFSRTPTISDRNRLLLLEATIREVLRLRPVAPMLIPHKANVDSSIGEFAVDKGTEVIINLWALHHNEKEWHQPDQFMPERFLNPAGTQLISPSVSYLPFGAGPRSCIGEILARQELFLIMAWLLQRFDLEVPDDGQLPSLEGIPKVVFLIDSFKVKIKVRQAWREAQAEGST
Test: CYP17 enzymatic assay (% inhibition at 10 nM), version 1 (Biological Example 5)
Assay type: biochemical
Conditions: compound at 10 nM, read-out: CYP17 enzymatic assay % inhibition at 10 nM (Biological Example No. 5)
Can you tell me inhibition at 0.01 µM for the items I'm about to list?

These recorded examples may help you get a feel for the data.
1) C[C@]12CC[C@H]3[C@@H](CC[C@H]4CC(=O)NCC[C@@]43C)C1=CC=C2n1ccnc1; > 80%
2) CN1C(=O)CC[C@@]2(C)C1=CC[C@@H]1[C@@H]2CC[C@]2(C)C(n3ccnc3)=CC[C@@H]12; 50 to 80%
3) COC1CC[C@@]2(C)[C@@H](CC[C@@H]3[C@@H]2CC[C@]2(C)C(c4cncc(C)c4)=CC[C@@H]32)C1 (some centres unmarked); 1 to 50%
4) C[C@]12CC[C@H](O)C[C@@H]1CC[C@@H]1[C@@H]2CC[C@]2(C)C(n3ccnn3)=CC[C@@H]12; > 80%

Attention now shifts to the item below.
CYP17 (human testicular microsome) (Homo sapiens) data for CN1C(=O)CCC[C@@]2(C)C1=CCC1C2CC[C@]2(C)C(c3cccnc3)=CCC12 (some centres unmarked) ; its inhibition at 0.01 µM: > 80%
